Target: GPR10 (Homo sapiens, UniProt P49683)
Construct: expressed in transfected cells; host or cells: CHO cells (gift from M. Parmentier, IRIBHM, Brussels), membranes
Sequence (P49683 whole entry): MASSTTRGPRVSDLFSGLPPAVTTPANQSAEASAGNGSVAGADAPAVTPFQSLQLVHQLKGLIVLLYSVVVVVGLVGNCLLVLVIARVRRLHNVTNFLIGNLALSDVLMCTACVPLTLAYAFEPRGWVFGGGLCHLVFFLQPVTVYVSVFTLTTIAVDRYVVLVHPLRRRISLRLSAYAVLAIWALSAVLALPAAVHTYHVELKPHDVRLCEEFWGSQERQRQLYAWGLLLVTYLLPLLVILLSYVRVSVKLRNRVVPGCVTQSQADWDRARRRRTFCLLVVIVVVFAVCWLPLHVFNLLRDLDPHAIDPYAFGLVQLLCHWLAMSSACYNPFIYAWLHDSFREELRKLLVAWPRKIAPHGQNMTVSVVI
Experiment: Radioligand competition binding with [3H]-PrRP-20
Conditions: [3H]-PrRP-20; read-out: Ki ± SEM GPR10
Quick list: Ki per entry.

compound: Cc1cc(O)cc(C)c1C[C@H](N)C(=O)N[C@H](CCCNC(=N)N)C(=O)N[C@H]1Cc2ccccc2CN(CCC(N)=O)C1=O [KGOP01, reference compound]
targetSystem: GPR10 (Homo sapiens, UniProt P49683)
Ki: > 10 µM

compound: Cc1cc(O)cc(C)c1C[C@H](N)C(=O)N[C@H](CCCNC(=N)N)C(=O)N[C@H]1Cc2ccccc2CN(CCC(=O)N[C@@H](CCCN2CCC(Cc3ccccc3)CC2)C(=O)N[C@@H](Cc2ccccc2)C(N)=O)C1=O
targetSystem: GPR10 (Homo sapiens, UniProt P49683)
Ki: > 10 µM

Every entry's value here was drawn from patent US20210002231A1.
